- measured_target: shADAM9-His (His-tagged soluble human ADAM9) (human) (UniProt Q13443)
- test_name: BIACORE SPR; antibody captured, huADAM9-His as analyte
test_readout: pKd
Field pKd (float): negative decimal logarithm of the concentration in molar.

Data request: What pKd value was documented for this binder, hMAB-A (2.2) (antibody, V domains shown) VH: EVQLVESGGGLVKPGGSLRLSCAASGFTFSSYWMHWVRQAPGKGLEWVGEIIPIFGHTNYNEKFKSRFTISLDNSKNTLYLQMGSLRAEDTAVYYCARGGYYYYGSRDYFDYWGQGTTVTVSS VL: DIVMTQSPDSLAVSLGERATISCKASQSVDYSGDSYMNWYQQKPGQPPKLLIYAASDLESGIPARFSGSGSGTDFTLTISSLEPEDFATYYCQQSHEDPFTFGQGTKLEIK ?
Data returned: 9.22

Hey, just so you know, these numbers are from patent US20250115676A1.
